Test system: COLO 205
Assay: NCI tumour cell line growth inhibition, 48 h
Active and inactive are the calls of the source. Rule as the data show it: active = GI50 up to about 1.1 µM and inactive = higher.
Hi! Could you answer with just one of these? true = active, false = inactive

Incoming: Just curious, what result did "COc1ccc(-c2cc(=O)c3c(O)c(O)c(OC)cc3o2)cc1O" get here?
Outgoing: false

Incoming: Just curious, what result did "C[C@H](C(=O)N1C(=O)O[C@@H](c2ccccc2)[C@H]1C)[C@H](c1ccccc1)N(Cc1ccccc1)OC(=O)c1ccccc1" get here?
Outgoing: false

Incoming: Just curious, what result did "N#Cc1c2c(c(N=[N+]=[N-])n3c1nc1ccccc13)CCCC2" get here?
Outgoing: false

Incoming: Just curious, what result did "CN1Cc2c(ccc3c2OCO3)[C@@H]2[C@H](O)Cc3cc4c(cc3[C@@H]21)OCO4" get here?
Outgoing: false

Incoming: Just curious, what result did "COc1ccc2nc3ccccc3c(NCCCCCN(CCCl)CCCl)c2c1" get here?
Outgoing: true

Incoming: Just curious, what result did "c1cncc(O[Si](Oc2cccnc2)(Oc2cccnc2)Oc2cccnc2)c1" get here?
Outgoing: false
